biological target: EGFR L858R/T790M/C797S (BaF3-LTC cells) (Homo sapiens, UniProt P00533, C797S/L858R/T790M); construct: expressed in transfected cells; host or cells: BaF3; assay: EGFR degradation HTRF assay, BaF3-LTC cells; type: cell-based; conditions: BaF3-LTC cells; EGFR degradation, IC50 (DC50) from curve fit; read-out: DC50(nM) BaF3-LTC
Sequence (P00533 25-1210 T790M/C797S/L858R): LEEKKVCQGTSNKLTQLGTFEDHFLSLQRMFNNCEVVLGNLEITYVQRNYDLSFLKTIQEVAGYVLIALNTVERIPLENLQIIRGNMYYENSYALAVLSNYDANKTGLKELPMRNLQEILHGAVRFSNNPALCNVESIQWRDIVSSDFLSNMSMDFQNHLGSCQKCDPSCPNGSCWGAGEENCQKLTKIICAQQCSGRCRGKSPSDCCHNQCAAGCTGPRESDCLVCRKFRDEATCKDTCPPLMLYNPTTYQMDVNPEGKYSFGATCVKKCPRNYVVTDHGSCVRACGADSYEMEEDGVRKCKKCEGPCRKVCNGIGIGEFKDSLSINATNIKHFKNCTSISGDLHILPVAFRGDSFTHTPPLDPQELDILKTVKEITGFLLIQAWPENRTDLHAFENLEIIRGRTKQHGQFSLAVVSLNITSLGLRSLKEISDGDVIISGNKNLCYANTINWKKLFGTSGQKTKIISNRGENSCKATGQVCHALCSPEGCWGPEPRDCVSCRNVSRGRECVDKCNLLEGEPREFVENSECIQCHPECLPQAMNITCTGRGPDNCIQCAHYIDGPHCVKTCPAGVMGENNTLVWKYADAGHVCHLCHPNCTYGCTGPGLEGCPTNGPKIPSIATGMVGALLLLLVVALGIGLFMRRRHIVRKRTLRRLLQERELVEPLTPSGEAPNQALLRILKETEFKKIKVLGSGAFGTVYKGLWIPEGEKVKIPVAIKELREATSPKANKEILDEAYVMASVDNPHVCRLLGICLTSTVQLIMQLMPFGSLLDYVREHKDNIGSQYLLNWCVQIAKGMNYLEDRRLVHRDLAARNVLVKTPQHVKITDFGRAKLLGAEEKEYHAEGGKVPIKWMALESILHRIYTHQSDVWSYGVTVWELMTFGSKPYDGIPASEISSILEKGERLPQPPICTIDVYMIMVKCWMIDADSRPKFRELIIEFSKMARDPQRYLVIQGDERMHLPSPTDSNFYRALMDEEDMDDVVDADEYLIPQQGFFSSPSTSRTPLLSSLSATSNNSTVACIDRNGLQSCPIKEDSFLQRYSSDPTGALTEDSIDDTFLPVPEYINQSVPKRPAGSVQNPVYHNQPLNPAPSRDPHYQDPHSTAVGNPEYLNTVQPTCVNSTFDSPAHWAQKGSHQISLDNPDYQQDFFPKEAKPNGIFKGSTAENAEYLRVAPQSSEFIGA
Quantity measured: DC50 (nM)

Some compounds with recorded DC50:
Compound	Unit abbrev	Numeric result
CCc1cc(Nc2ncc(Br)c(Nc3ccc4nc(C)sc4c3P(C)(C)=O)n2)c(OC)cc1N1CCC(N2CCN(CCc3cc(F)c(C4CCC(=O)NC4=O)c(F)c3)CC2)CC1 (centres unmarked)	nM	11.1
CCc1cc(Nc2ncc(Br)c(Nc3ccc4nccnc4c3P(C)(C)=O)n2)c(OC)cc1N1CCC(N2CCN(CCc3cc(F)c([C@H]4CCC(=O)NC4=O)c(F)c3)CC2)CC1	nM	9.43

A: CCOc1cc(N2CCC(N3CCN(CCc4cccc5c4oc(=O)n5C4CCC(=O)NC4=O)CC3)CC2)c(CC)cc1Nc1ncc(Br)c(Nc2ccc3nc(CC)ccc3c2P(C)(C)=O)n1 (centres unmarked)
B: CCOc1cc(N2CCC(N3CCN(C(=O)[C@@H]4CCN(c5cc(F)c([C@H]6CCC(=O)NC6=O)c(F)c5)C4)CC3)CC2)c(CC)cc1Nc1ncc(Br)c(Nc2cc(F)c3ncccc3c2P(C)(C)=O)n1
C: CCOc1cc(N2CCC(N3CCN(CC4CN(c5cccc6c5n(C)c(=O)n6C5CCC(=O)NC5=O)C4)CC3)CC2)c(CC)cc1Nc1ncc(Br)c(Nc2ccc3c(=O)n(CC)ncc3c2P(C)(C)=O)n1 (centres unmarked)
Ask: Kindly order the items shown according to DC50, from the highest value down. The labels, placed in the requested order, form the answer.
Result: C, A, B
(C: 37.3 nM, A: 9.51 nM, B: 5.8 nM)
